// provenance: patent US11014911B2

# target of assay: CDK2/Cyclin E1 full length (Homo sapiens (Human), UniProt P24941)
# experiment: CDK2/Cyclin E1 full length mobility shift assay
Parameter log10 Ki: see the listing below.
measured attribute: log10 Ki (log10 of the value in nM)

molecule	target of assay	log10 Ki
Cc1cnc(CC(=O)Nc2cc([C@H]3CC[C@@H](OC(=O)NC4(CC(F)(F)F)CC4)C3)[nH]n2)cn1	CDK2/Cyclin E1 full length (Homo sapiens (Human), UniProt P24941)	-0.33
CCCNC(=O)O[C@@H]1CC[C@H](c2cc(NC(=O)Cc3cnc(C)o3)n[nH]2)C1	CDK2/Cyclin E1 full length (Homo sapiens (Human), UniProt P24941)	0.40
Cc1coc(CC(=O)Nc2cc([C@H]3CC[C@@H](OC(=O)NC(C)C)C3)[nH]n2)n1	CDK2/Cyclin E1 full length (Homo sapiens (Human), UniProt P24941)	0.42
COc1cc(CC(=O)Nc2cc([C@H]3CC[C@@H](OC(=O)NC(C)C)C3)[nH]n2)c(OC)cn1	CDK2/Cyclin E1 full length (Homo sapiens (Human), UniProt P24941)	0.60
COc1cc(CC(=O)Nc2cc([C@H]3CC[C@@H](OC(=O)N[C@@H](C)[C@@H](C)F)C3)[nH]n2)ccn1	CDK2/Cyclin E1 full length (Homo sapiens (Human), UniProt P24941)	-0.55
O=C(Cc1cc(F)cc(F)c1)Nc1cc([C@@H]2CC[C@H](OC(=O)NC[C@H]3C[C@H](O)C3)C2)[nH]n1	CDK2/Cyclin E1 full length (Homo sapiens (Human), UniProt P24941)	0.30
CCCNC(=O)O[C@@H]1CC[C@H](c2cc(NC(=O)Cc3ccc4c(cnn4C)c3)n[nH]2)C1	CDK2/Cyclin E1 full length (Homo sapiens (Human), UniProt P24941)	-0.62
Cc1cnc(CC(=O)Nc2cc([C@@H]3CC[C@H](OC(=O)NC4(C)CCOC4)C3)[nH]n2)o1 (single isomer, unassigned) [Example 476]	CDK2/Cyclin E1 full length (Homo sapiens (Human), UniProt P24941)	-0.35
COc1ncc(CC(=O)Nc2cc([C@H]3CC[C@@H](OC(=O)NC4(C)CCOCC4)C3)[nH]n2)s1	CDK2/Cyclin E1 full length (Homo sapiens (Human), UniProt P24941)	-0.30
C[C@@H](CC(F)(F)F)NC(=O)O[C@@H]1CC[C@H](c2cc(NC(=O)c3cnnn3C)n[nH]2)C1	CDK2/Cyclin E1 full length (Homo sapiens (Human), UniProt P24941)	-1.05
COc1ccc(CC(=O)Nc2cc([C@H]3CC[C@@H](OC(=O)N4C[C@@H](C#N)[C@@H]4C)C3)[nH]n2)cn1 (single isomer, unassigned) [Example 158]	CDK2/Cyclin E1 full length (Homo sapiens (Human), UniProt P24941)	-0.77
Cc1cnc(CC(=O)Nc2cc([C@@H]3CC[C@H](OC(=O)NC4(C)CCOC4)C3)[nH]n2)o1 (single isomer, unassigned) [Example 475]	CDK2/Cyclin E1 full length (Homo sapiens (Human), UniProt P24941)	-0.08
CC[C@H](C)NC(=O)O[C@@H]1CC[C@H](c2cc(NC(=O)Cc3cncs3)n[nH]2)C1	CDK2/Cyclin E1 full length (Homo sapiens (Human), UniProt P24941)	-0.77
Cn1cc(CC(=O)Nc2cc([C@H]3CC[C@@H](OC(=O)NC4(C)CCOCC4)C3)[nH]n2)cn1	CDK2/Cyclin E1 full length (Homo sapiens (Human), UniProt P24941)	-0.12
Cc1cc(CC(=O)Nc2cc([C@H]3CC[C@@H](OC(=O)N4C[C@@](C)(O)[C@@H]4C)C3)[nH]n2)on1	CDK2/Cyclin E1 full length (Homo sapiens (Human), UniProt P24941)	0.60
COc1ccc(S(C)(=O)=O)c(CC(=O)Nc2cc([C@H]3CC[C@@H](OC(=O)NC4(C)CC4)C3)[nH]n2)c1	CDK2/Cyclin E1 full length (Homo sapiens (Human), UniProt P24941)	-0.44
COc1ccc(CC(=O)Nc2cc([C@@H]3CC[C@H](OC(=O)N4C[C@@](C)(O)[C@@H]4C)C3)[nH]n2)cn1	CDK2/Cyclin E1 full length (Homo sapiens (Human), UniProt P24941)	0.67
COc1cnc(CC(=O)Nc2cc([C@H]3CC[C@@H](OC(=O)N[C@@H](C)C4CC4)C3)[nH]n2)cn1	CDK2/Cyclin E1 full length (Homo sapiens (Human), UniProt P24941)	-0.12
CC[C@H](C)NC(=O)O[C@@H]1CC[C@H](c2cc(NC(=O)Cc3ccc4ncc(C)n4n3)n[nH]2)C1	CDK2/Cyclin E1 full length (Homo sapiens (Human), UniProt P24941)	-0.74
CCC(NC(=O)O[C@@H]1CC[C@H](c2cc(NC(=O)Cc3ccnc(OC)c3)n[nH]2)C1)C(F)(F)F (single isomer, unassigned) [Example 406]	CDK2/Cyclin E1 full length (Homo sapiens (Human), UniProt P24941)	0.26
COc1cc(CC(=O)Nc2cc([C@H]3CC[C@@H](OC(=O)N4CCC4C)C3)[nH]n2)ccn1 (single isomer, unassigned) [Example 153]	CDK2/Cyclin E1 full length (Homo sapiens (Human), UniProt P24941)	-0.66
CC[C@H](C)NC(=O)O[C@@H]1CC[C@H](c2cc(NC(=O)Cc3ncc(OC)s3)n[nH]2)C1	CDK2/Cyclin E1 full length (Homo sapiens (Human), UniProt P24941)	-0.30
C[C@H]1[C@H](C#N)CN1C(=O)O[C@@H]1CC[C@H](c2cc(NC(=O)Cc3ccccc3)n[nH]2)C1 (single isomer, unassigned) [Example 162]	CDK2/Cyclin E1 full length (Homo sapiens (Human), UniProt P24941)	0.48
Cc1coc(CC(=O)Nc2cc([C@H]3CC[C@@H](OC(=O)N[C@@H](C)CC(F)(F)F)C3)[nH]n2)n1	CDK2/Cyclin E1 full length (Homo sapiens (Human), UniProt P24941)	-0.66
CC(CC(F)(F)F)N(C)C(=O)O[C@@H]1CC[C@H](c2cc(NC(=O)Cc3cnn(C)c3)n[nH]2)C1 (single isomer, unassigned) [Example 414]	CDK2/Cyclin E1 full length (Homo sapiens (Human), UniProt P24941)	-0.38
Cc1ncc(CC(=O)Nc2cc([C@H]3CC[C@@H](OC(=O)N[C@H]4CCC[C@H]4C)C3)[nH]n2)s1	CDK2/Cyclin E1 full length (Homo sapiens (Human), UniProt P24941)	0.42
COc1cnc(CC(=O)Nc2cc([C@H]3CC[C@@H](OC(=O)NC4(CC(F)(F)F)CC4)C3)[nH]n2)cn1	CDK2/Cyclin E1 full length (Homo sapiens (Human), UniProt P24941)	-0.42
